# maps each entry to its pIC50
# experimentalSystem: μ opioid receptor (UniProt P35372)
# Sequence (P35372 whole entry): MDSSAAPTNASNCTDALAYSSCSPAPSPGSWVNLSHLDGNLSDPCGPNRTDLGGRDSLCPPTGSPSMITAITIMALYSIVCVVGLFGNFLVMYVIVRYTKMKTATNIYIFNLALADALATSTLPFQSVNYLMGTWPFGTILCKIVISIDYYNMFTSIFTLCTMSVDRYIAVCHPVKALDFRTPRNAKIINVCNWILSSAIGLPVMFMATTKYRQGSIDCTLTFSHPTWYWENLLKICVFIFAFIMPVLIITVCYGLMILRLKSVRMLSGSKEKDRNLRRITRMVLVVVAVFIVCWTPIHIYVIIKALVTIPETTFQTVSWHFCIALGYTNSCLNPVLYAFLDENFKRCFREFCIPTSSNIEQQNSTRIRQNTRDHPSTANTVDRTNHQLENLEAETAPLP
# assayExplanation: radioligand binding
Starred links: 1 amine or outer side, 2 acyl side, 3 side chain; linkers in the order of their positions; H or OH if unused. Non-standard residues stand in square brackets, D forms with d. No end group written: not given here. Phe(3-(3-thienyl)) = O=C([C@H](Cc1cccc(-c2ccsc2)c1)N[*:1])[*:2]; Phe(2-(3-thienyl)) = O=C([C@H](Cc1ccccc1-c1ccsc1)N[*:1])[*:2]; Phe(2-vinyl) = C=Cc1ccccc1C[C@H](N[*:1])C(=O)[*:2]; Phe(2-Ph) = N[C@@H](Cc1ccccc1-c1ccccc1)C(=O)O; Dmt = Cc1cc(O)cc(C)c1C[C@H](N)C(=O)O
// pIC50 is dimensionless: -log10 of concentration (M)

binder: [Dmt][dR][Phe(2-(3-thienyl))]G-NH2 (N-terminus assumed; SMILES Cc1cc(O)cc(C)c1C[C@H](N)C(=O)N[C@H](CCCNC(=N)N)C(=O)N[C@@H](Cc1ccccc1-c1ccsc1)C(=O)NCC(N)=O) [Dmt-D-Arg-Phe(2-(3-thienyl))-Gly-NH2]
pIC50: 8.84

*Q* Any idea what pIC50 was measured for [Dmt][dR][Phe(2-Ph)]G-NH2 (N-terminus assumed; SMILES Cc1cc(O)cc(C)c1C[C@H](N)C(=O)N[C@H](CCCNC(=N)N)C(=O)N[C@@H](Cc1ccccc1-c1ccccc1)C(=O)NCC(N)=O) [Dmt-D-Arg-Phe(2-phenyl)-Gly-NH2] ?
*A* 9.27

*Q* Any idea what pIC50 was measured for [Dmt][dA][Phe(2-vinyl)]G-NH2 (N-terminus assumed; SMILES C=Cc1ccccc1C[C@H](NC(=O)[C@@H](C)NC(=O)[C@@H](N)Cc1c(C)cc(O)cc1C)C(=O)NCC(N)=O) [Dmt-D-Ala-Phe(2-vinyl)-Gly-NH2] ?
*A* 9.60

*Q* Any idea what pIC50 was measured for [Dmt][dA][Phe(2-(3-thienyl))]G-NH2 (N-terminus assumed; SMILES Cc1cc(O)cc(C)c1C[C@H](N)C(=O)N[C@H](C)C(=O)N[C@@H](Cc1ccccc1-c1ccsc1)C(=O)NCC(N)=O) [Dmt-D-Ala-Phe(2-(3-thienyl))-Gly-NH2] ?
*A* 6.62

*Q* Any idea what pIC50 was measured for [Dmt][dA][Phe(2-Ph)]G-NH2 (N-terminus assumed; SMILES Cc1cc(O)cc(C)c1C[C@H](N)C(=O)N[C@H](C)C(=O)N[C@@H](Cc1ccccc1-c1ccccc1)C(=O)NCC(N)=O) [Dmt-D-Ala-Phe(2-phenyl)-Gly-NH2] ?
*A* 9.46

*Q* Any idea what pIC50 was measured for [Dmt][dR][Phe(3-(3-thienyl))]G-NH2 (N-terminus assumed; SMILES Cc1cc(O)cc(C)c1C[C@H](N)C(=O)N[C@H](CCCNC(=N)N)C(=O)N[C@@H](Cc1cccc(-c2ccsc2)c1)C(=O)NCC(N)=O) [Dmt-D-Arg-Phe(3-(3-thienyl))-Gly-NH2] ?
*A* 8.99

The origin of these recorded values is paper PMC6005765.
